Where do these numbers come from? They come from patent US20220153732A1.

# Tested on: PD1-ss+10aa/Gaussia Luciferase
# assay.info: Dox-Induced PD1-ss-Gluc Assay
# Type: cell-based
# test.context: 24 hr doxycycline induction, 293FRT/TO cells, Gaussia luciferase signal; read-out: 24 hr Dox Inducible PD1ssGluc 293FRT/TO: Mean IC50
pIC50: −log10 of the molar value.
parameter.measured: pIC50

molecule=CC(C)OC(C)(C)c1csc(NC(=O)c2cccc(=O)n2Cc2ccncc2)n1 modifier_sign=< measurement=4.60
molecule=CC(C)OC(C)(C)c1csc(NC(=O)c2nccn2Cc2ccncc2)n1 modifier_sign=< measurement=4.60
molecule=CC(C)OC(C)(C)c1csc(NC(=O)c2ccn(Cc3ccncc3)c2)n1 modifier_sign=< measurement=4.60
molecule=COCc1cnc(NC(=O)c2cccn2Cc2ccncc2)s1 modifier_sign== measurement=4.84
molecule=CC(C)OC(C)(C)c1csc(NC(=O)c2cccn2Cc2ccnnc2)n1 modifier_sign== measurement=5.68
molecule=CC(=O)N(C)c1ccc(Cn2cccc2C(=O)Nc2nc(C(C)(C)OC(C)C)cs2)cc1 modifier_sign== measurement=4.70
molecule=O=C(Nc1nc(C2(OCc3ccccc3)CC2)cs1)c1cccn1Cc1ccncc1 modifier_sign== measurement=6.42
molecule=CC(C)OC(C)(C)c1csc(NC(=O)c2cccn2[C@@H](C)c2ccncc2)n1 modifier_sign== measurement=5.59
molecule=O=C(Nc1nc(/C=C/c2ccc(Cl)cc2)cs1)c1cccn1Cc1ccncc1 modifier_sign== measurement=7.23
molecule=O=C(Nc1nc(C2Cc3ccccc3C2)cs1)c1cccn1CCCc1ccncc1 modifier_sign== measurement=6.12
molecule=C/C(=C\c1csc(NC(=O)c2cccn2Cc2ccncc2)n1)c1ccccc1 modifier_sign== measurement=6.28
molecule=CC(C)OC(C)(C)c1csc(NC(=O)c2cccn2CCCc2ccccc2)n1 modifier_sign== measurement=5.76
molecule=O=C(Nc1nc([C@H]2C[C@H]2c2ccccc2)cs1)c1cccn1Cc1ccncc1 modifier_sign== measurement=6.85
molecule=COc1cnccc1Cn1cccc1C(=O)Nc1nc(C(C)(C)OC(C)C)cs1 modifier_sign== measurement=5.00
molecule=O=C(Nc1nc2c(s1)CCC2)c1cccn1Cc1ccncc1 modifier_sign== measurement=5.85
molecule=CC(C)OC(C)(C)c1csc(NC(=O)c2cccn2Cc2ccncc2Br)n1 modifier_sign== measurement=6.06
molecule=CC(C)(CCc1ccccc1)c1csc(NC(=O)c2cccn2Cc2ccncc2)n1 modifier_sign== measurement=6.49
molecule="CC(c1ccccc1)c1csc(NC(=O)c2cccn2Cc2ccncc2)n1 (stereo not shown)" modifier_sign== measurement=6.59
molecule=O=C(Nc1nc(CCO)cs1)c1cccn1Cc1ccncc1 modifier_sign=< measurement=4.60

---

# System: IL-2-FL/Gaussia Luciferase
# assay.info: Dox Induced IL2-FL-Gluc Assay
# Assay type: cell-based
# test.context: 24 hr doxycycline induction, 293FRT/TO cells, Gaussia luciferase signal; read-out: 24 hr Dox Inducible IL2FLGIuc 293FRT/TO: Mean IC50
pIC50: −log10 of the molar value.
parameter.measured: pIC50

smiles_string=O=C(Nc1nc(N2CCC(c3ccccc3)CC2)cs1)c1cccn1Cc1ccncc1 target_entity="IL-2-FL/Gaussia Luciferase" parameter_measured=pIC50 measurement="< 4.60"
smiles_string=COCc1csc(NC(=O)c2cccn2Cc2ccncc2)n1 target_entity="IL-2-FL/Gaussia Luciferase" parameter_measured=pIC50 measurement="< 4.60"
smiles_string=CC(C)OC(C)(C)c1csc(NC(=O)c2cccn2C/C=C/c2ccncc2)n1 target_entity="IL-2-FL/Gaussia Luciferase" parameter_measured=pIC50 measurement="< 4.60"
smiles_string=CC(C)OC(C)(C)c1csc(NC(=O)c2ccc(C(N)=O)n2Cc2ccncc2)n1 target_entity="IL-2-FL/Gaussia Luciferase" parameter_measured=pIC50 measurement="< 4.60"
smiles_string=O=C(Nc1nc(/C=C/c2ccc3c(n2)OCO3)cs1)c1cccn1Cc1ccncc1 target_entity="IL-2-FL/Gaussia Luciferase" parameter_measured=pIC50 measurement="< 4.60"

---

# System: HER3-ss+4aa/Gaussia Luciferase
# assay.info: Dox-Induced Her3-ss-Gluc Assay
# Format: cell-based
# test.context: 24 hr doxycycline induction, 293FRT/TO cells, Gaussia luciferase signal; read-out: 24 hr Dox Inducible Her3(ss + 4)Gluc 293FRT/TO: Mean IC50
pIC50: −log10 of the molar value.
parameter.measured: pIC50

compound="Cc1csc(NC(=O)c2cccn2Cc2ccncc2)n1 [Compound A63]" modifier_sign== measurement=4.97
compound="CC(C)(COc1ccccc1)c1csc(NC(=O)c2cccn2Cc2ccncc2)n1 [Compound A228]" modifier_sign== measurement=6.14
compound="CC(=O)N1CCC(CCCn2cccc2C(=O)Nc2nc(C(C)(C)OC(C)C)cs2)CC1 [Compound A101]" modifier_sign=< measurement=4.60
compound="O=C(Nc1nc(/C=C/c2ccc3c(c2)OCO3)cs1)c1cccn1Cc1ccncc1 [Compound A234]" modifier_sign== measurement=6.67
compound="C[C@H](OC(C)(C)c1csc(NC(=O)c2cccn2CCCc2ccncc2)n1)c1ccccc1 [Compound A6]" modifier_sign== measurement=7.06
compound="CC(OC(C)(C)c1csc(NC(=O)c2cccn2Cc2ccncc2)n1)c1ccc(Cl)cc1 (stereo not shown) [Compound A5]" modifier_sign== measurement=6.99
compound="O=C(Nc1nc(N2CCC(c3ccccc3)CC2)cs1)c1cccn1Cc1ccncc1 [Compound A261]" modifier_sign== measurement=5.69

---

# Test system: HER3-ss+4aa/Gaussia Luciferase
# assay.info: Dox-Induced Her3-ss-Gluc Assay
# Type: cell-based
# test.context: 24 hr doxycycline induction, 293FRT/TO cells, Gaussia luciferase signal; read-out: 24 hr Dox Inducible Her3(ss + 4)Gluc 293FRT/TO: Mean IC50
# Description: Transfected cells were selected for resistance to the selectable markers Hygromycin and Blasticidin to create a stable cell line that contained the HER3-ss+4aa/Gaussia Luciferase cDNA insert whose expression was regulated under the T-REx™ system. The day before assay, cells were trypsinized and plated in 384-well tissue culture plates. The next day, compound dilutions in DMSO/media containing doxycycline were added to the wells and incubated at 37° C., 5% CO2. […]
parameter.measured: IC50

smiles_string=COc1cnccc1Cn1cccc1C(=O)Nc1nc(C(C)(C)OC(C)C)cs1 measurement="> 25 µM"
smiles_string=O=C(Nc1nc(N2CCc3ccccc3C2)cs1)c1cccn1Cc1ccncc1 measurement="> 25 µM"
smiles_string=CC(C)OC(C)(C)c1csc(NC(=O)c2c(Cl)ccn2Cc2ccncc2)n1 measurement="> 25 µM"

---

# Test system: HER3-ss+4aa/Gaussia Luciferase
# assay.info: Dox-Induced Her3-ss-Gluc Assay
# Type: cell-based
# test.context: 24 hr doxycycline induction, 293FRT/TO cells, Gaussia luciferase signal; read-out: 24 hr Dox Inducible Her3(ss + 4)Gluc 293FRT/TO: Mean IC50
parameter.measured: IC50

compound="O=C(Nc1nc(CCc2cccc(Cl)c2)cs1)c1cccn1Cc1ccncc1 [Compound A179]" measurement="0.541 µM"
compound="CC(C)OC(C)(C)c1csc(NC(=O)[C@@H]2CCCN2Cc2ccncc2)n1 [Compound A130]" measurement="> 25 µM"
compound="CC(=O)Nc1ccc(Cn2cccc2C(=O)Nc2nc(C(C)(C)OC(C)C)cs2)cc1 [Compound A114]" measurement="> 25 µM"
compound="CC(C)OC(C)(C)c1csc(NC(=O)c2ccc(C(=O)N(C)C)n2Cc2ccncc2)n1 [Compound A107]" measurement="> 25 µM"

---

# System: IL-2-FL/Gaussia Luciferase
# assay.info: Dox Induced IL2-FL-Gluc Assay
# Assay type: cell-based
# test.context: 24 hr doxycycline induction, 293FRT/TO cells, Gaussia luciferase signal; read-out: 24 hr Dox Inducible IL2FLGIuc 293FRT/TO: Mean IC50
Binary call on IC50 with cut-off 600 nM: strictly below means 1 (yes), and equality or higher means 0 (no).

molecule="CC(C)OC(C)(C)c1csc(NC(=O)c2cccn2Cc2ccc(=O)n(C)c2)n1 [Compound A124]" label="0 (no)"
molecule="O=C(Nc1nc(N2CCc3ccccc3C2)cs1)c1cccn1Cc1ccncc1 [Compound A267]" label="0 (no)"
molecule="CC(C)OC(C)(C)c1csc(NC(=O)c2cc(CO)cn2Cc2ccncc2)n1 [Compound A113]" label="0 (no)"
molecule="COc1ccc(/C=C/c2csc(NC(=O)c3cccn3Cc3ccncc3)n2)cc1 [Compound A160]" label="1 (yes)"
molecule="O=C(Nc1nc([C@@H]2CCCN2c2ccccc2)cs1)c1cccn1Cc1ccncc1 [Compound A276]" label="0 (no)"
molecule="O=C(Nc1nc(/C=C/c2ccc([N+](=O)[O-])cc2)cs1)c1cccn1Cc1ccncc1 [Compound A227]" label="0 (no)"
molecule="CC(C)OC(C)(C)c1csc(NC(=O)c2cccn2[C@@H](C)c2ccncc2)n1 [Compound A74]" label="0 (no)"
molecule="O=C(Nc1nc(/C=C\\c2ccccc2)cs1)c1cccn1Cc1ccncc1 [Compound A12]" label="1 (yes)"
molecule="CC(C)OC(C)(C)c1csc(NC(=O)c2cccn2CCCc2ccncc2F)n1 [Compound A243]" label="1 (yes)"
molecule="O=C(Nc1nc(CCO)cs1)c1cccn1Cc1ccncc1 [Compound A120]" label="0 (no)"
molecule="CC(OC(C)(C)c1csc(NC(=O)c2cccn2Cc2ccncc2)n1)c1ccccc1Cl (stereo not drawn) [Compound A8]" label="1 (yes)"
molecule="COc1cnc(NC(=O)c2cccn2Cc2ccncc2)s1 [Compound A82]" label="0 (no)"
molecule="C[C@H](OC(C)(C)c1csc(NC(=O)c2cccn2Cc2ccncc2)n1)c1ccccc1 [Compound A1]" label="1 (yes)"
molecule="CC(C)OC(C)(C)c1csc(NC(=O)c2cccn2Cc2ccncc2Cl)n1 [Compound A238]" label="0 (no)"
molecule="CC(C)(OC1CCCCC1)c1csc(NC(=O)c2cccn2Cc2ccncc2)n1 [Compound A10]" label="1 (yes)"
molecule="O=C(Nc1nc(C2=Cc3ccccc3C2)cs1)c1cccn1Cc1ccncc1 [Compound A242]" label="0 (no)"
molecule="CC(=O)Nc1ccc(/C=C/c2csc(NC(=O)c3cccn3Cc3ccncc3)n2)cc1 [Compound A223]" label="0 (no)"
molecule="CC(C)OC(C)c1csc(NC(=O)c2cccn2Cc2ccncc2)n1 (stereo not drawn) [Compound A28]" label="1 (yes)"
molecule="Cc1sc(NC(=O)c2cccn2Cc2ccncc2)nc1C(C)OC(C)C (stereo not drawn) [Compound A20]" label="1 (yes)"
molecule="CC(C)c1csc(CNC(=O)c2cccn2Cc2ccncc2)n1 [Compound A117]" label="0 (no)"
molecule="CC(C)OC(C)(C)c1csc(NC(=O)c2cccn2CCc2ccncc2)n1 [Compound A91]" label="0 (no)"
molecule="CC(C)OC(C)(C)c1csc(NC(=O)c2cccc(=O)n2Cc2ccncc2)n1 [Compound A106]" label="0 (no)"
molecule="O=C(Nc1nc(C2=CCN(Cc3ccccc3)CC2)cs1)c1cccn1Cc1ccncc1 [Compound A259]" label="0 (no)"
